For each of the molecules below, state its TGI.
- System: HT29 colon
- assayInfo: NCI tumour cell line growth inhibition, 48 h
Please give a number only; it is taken to be in µM.

Challenge: Item: `O=S(=O)(Nc1nccs1)c1ccc(Nc2nc(-c3cccs3)nc3ccc(I)cc23)cc1` Test system: HT29 colon Read-out: TGI Value: ?
Response given: 51.7

Challenge: Record `COc1ccc(-c2csc(=[N+]3CCCCC3)s2)cc1` : what is its TGI with HT29 colon?
Response given: 29.9

Challenge: Quick check: TGI on HT29 colon, item `O=C1C(c2ccccc2)=[N+]([O-])c2ccc(Cl)cc21` ?
Response given: 56.1

---

- Tested on: SF-268 CNS
- assayInfo: NCI tumour cell line growth inhibition, 48 h
measurementName: TGI

Challenge: Which TGI value is on record for `Cn1cc(-c2csc(-c3c[nH]c4ccccc34)n2)c2cccnc21` ?
Response given: > 100 µM

Challenge: Requested field: TGI. Item: CC(NC(=O)OC(C)(C)C)C(=O)NC1CCCC1 (stereo unspecified)
Response given: > 100 µM

Challenge: # get_value(readout='TGI', item= `CCCCCCCC/C(=C\C1=C(C)C(=O)C(OC)=C(OC)C1=O)C(=O)O` )
Response given: 70.3 µM

Challenge: Could you tell me which TGI is on file for `CN1CCN(Cc2nc3cccc4c3c([n+]2[O-])-c2ccccc2-4)CC1` ?
Response given: > 66.5 µM

Challenge: What TGI value was documented for this molecule, `NC1(P(=O)(O)O)CCCCC1` ?
Response given: > 100 µM

Challenge: // TGI lookup, key: `O=S(=O)(Nc1ccc2ccccc2c1)N1CCCCC1`
Response given: 28.8 µM

Challenge: Give the measured TGI of COc1cc2c(cc1OCCCCCN1CCN(CCCCCOc3cc4c(cc3OC)C(=O)C3CCC[C@H]3C=N4)CC1)N=C[C@@H]1CCCC1C2=O (stereo partly specified) .
Response given: > 100 µM

Challenge: Param item = CCCCCCC1=NOC(C(c2cc[nH]c2)N(C)[C@H](C(=O)OC)C(C)C)C1 (stereo partly specified) ; retrieve measured TGI.
Response given: > 100 µM

Challenge: Look up TGI: `COc1cc2c3c(n(CCCN)c(=O)c2cc1OC)-c1ccc(N(C)C)cc1C3=O`
Response given: 46.1 µM

Challenge: Which TGI is reported for this molecule? `O=[N+]([O-])/C(C(Cl)=C(Cl)Cl)=C(\Nc1cccc2ccccc12)n1nnc2ccccc21`
Response given: > 100 µM

Challenge: What measured TGI goes with `O=C1c2ccccc2CC12CCC1(CC2)OCCO1` ?
Response given: > 100 µM

---

- Tested on: SW-620 colon
- assayInfo: NCI tumour cell line growth inhibition, 48 h
Provide the reported TGI of each item.

Challenge: TGI for CCCCNC(=O)OCCN=C1c2ccccc2C(Br)C(Br)c2ccccc21 (stereo unspecified) ?
Response given: > 100 µM

Challenge: Form field: reported TGI of `C=C1CC[C@]2(C)[C@H](CC[C@@]34C[C@@H](CC[C@H]32)[C@@H](C(=O)O)C4)C1(C)C`
Response given: > 12.5 µM

Challenge: Entry under review: `O=c1cc(-c2ccccc2)[nH]c2ccc(N3CCCC3)cc12` . Reported TGI?
Response given: > 100 µM

Challenge: Would you kindly share the measured TGI for `COC(=O)[C@@H]1c2[nH]c3ccccc3c2C[C@@H]2c3ccccc3NC(=O)[C@@H]21` ?
Response given: > 100 µM

Challenge: Entry under review: CCSC1=CC(Cc2ccc(OC)cc2)N(C(=O)OC)C1 (stereo unspecified) . Reported TGI?
Response given: > 100 µM

Challenge: What measured TGI goes with `CC[C@@]1(C[C@H]2C[C@@]3(C(=O)OC)c4[nH]c5ccccc5c4CCN3C2=S)COC2(CCCCC2)O1` ?
Response given: 36.2 µM

Challenge: What does the record list as TGI for `COC(=O)Nc1nc2ccc(NS(=O)(=O)c3ccc(Cl)cc3)cc2[nH]1` ?
Response given: > 100 µM

Challenge: Give its TGI value. Item: CCOc1ccc(C2Oc3c(cccc3OC)C=C2[N+](=O)[O-])cc1OCC (stereo unspecified)
Response given: 4.22 µM

Challenge: // TGI lookup, key: `CN(C)[C@@H]1C(=O)C(C(=O)NCN2CCN(C(=N)N=C(N)N)CC2)=C(O)[C@@]2(O)C(=O)C3=C(O)c4c(O)cccc4[C@@](C)(O)[C@H]3C[C@@H]12`
Response given: 11 µM

Challenge: What value of measured TGI is listed for `Cn1cc(C2=C(n3ccc4ccccc43)C(=O)NC2=O)c2ccccc21` ?
Response given: > 25 µM

Challenge: Entry COc1ccc2c(c1OC)C(=O)OC2C1c2c(c(N)c3c(c2OC)OCO3)CCN1C (stereo unspecified) has what TGI?
Response given: > 100 µM

Challenge: // lookup TGI for CC1(c2ccc(Cl)cc2)NC(=NCCO)c2ccccc21 (stereo unspecified)
Response given: > 100 µM

Challenge: Request the reported TGI associated with `O=S(=O)(Nc1ccc2ccccc2c1)N1CCCCC1`
Response given: 20.7 µM

Challenge: Dear colleague, I am looking for the recorded TGI of the following molecule: `Cc1cc(O)c(C=NC(=S)c2ccncc2)c(=O)o1`
Response given: > 100 µM

Challenge: Please look up its TGI: CC1(O)C(C)(O)C(C)(O)C1(C)O (stereo unspecified)
Response given: > 100 µM

Challenge: Fill in the blank: the reported TGI of `O=C1/C(=C/c2ccc(Cl)cc2)N=C(c2ccccc2)N1c1nc2ccc(Sc3ccccc3)cc2[nH]1` is ____.
Response given: 80.8 µM

Challenge: Would you mind telling me what TGI value was observed for CC(C)C(NCc1c2ccccc2[n+]([O-])c2ccccc12)C(=O)O (stereo unspecified) ?
Response given: > 100 µM

Challenge: So what does the record say about TGI for COc1ccc(C2NC(=O)c3cc4c(cc3N2)OCO4)cc1 (stereo unspecified) ?
Response given: > 100 µM

Challenge: For the molecule CN1CCC(CN2c3ccccc3Sc3ccccc32)C1 (stereo unspecified) , what TGI is on record?
Response given: 35.7 µM

Challenge: Which TGI is listed for Nc1nc2c3c(ncn3CC(O)CO2)n1 (stereo unspecified) ?
Response given: > 100 µM

Challenge: Any idea what TGI was measured for CCOC(=O)C(C(=O)OCC)C1C=CCC2c3ccccc3COCC21 (stereo unspecified) ?
Response given: > 100 µM
